Test: self-splicing fitness, log relative to wild type (ln ratio); higher = more splicing; Tetrahymena group I intron in knt gene, E. coli kanamycin selection, DiMSum; sequences stand for … in CUCUCU…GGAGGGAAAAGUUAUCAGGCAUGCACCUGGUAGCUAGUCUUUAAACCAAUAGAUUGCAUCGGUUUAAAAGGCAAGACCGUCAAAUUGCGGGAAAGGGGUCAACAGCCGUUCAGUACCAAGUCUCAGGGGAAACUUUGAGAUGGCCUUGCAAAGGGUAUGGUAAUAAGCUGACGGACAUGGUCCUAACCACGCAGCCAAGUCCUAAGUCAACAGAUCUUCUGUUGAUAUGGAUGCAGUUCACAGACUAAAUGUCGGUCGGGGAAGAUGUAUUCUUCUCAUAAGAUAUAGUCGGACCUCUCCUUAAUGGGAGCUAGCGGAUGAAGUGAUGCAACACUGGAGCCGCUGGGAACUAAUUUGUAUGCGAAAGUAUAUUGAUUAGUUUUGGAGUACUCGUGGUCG;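 note: selection with 25 µg/mL kanamycin versus none on LB agar overnight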
Details: 37 °C
Categorized via self-splicing fitness (ln): class 0 (below -2), class 1 (-2 to below -1), class 2 (-1 or more)

seq string	discrete label
CGUAAGCAAUAUUACGGAAA	class 0
UUGUAGCAAUAUUACGGCGA	class 2
AGUAAGCAAUAUUACGAGAA	class 1
GAUAAGCAAUAUUACGUUAA	class 1
GAACAGCAAUAUUACGCAGU	class 0
CCCAAGCAAUAUUACGGGAG	class 0
CGAAAGCAAUAUUACGCUGA	class 1
UAUGAGCAAUAUUACGAUGG	class 2

----------
Assay: self-splicing fitness, log relative to wild type (ln ratio); higher = more splicing; Tetrahymena group I intron in knt gene, E. coli kanamycin selection, DiMSum; sequences stand for … in CUCUCU…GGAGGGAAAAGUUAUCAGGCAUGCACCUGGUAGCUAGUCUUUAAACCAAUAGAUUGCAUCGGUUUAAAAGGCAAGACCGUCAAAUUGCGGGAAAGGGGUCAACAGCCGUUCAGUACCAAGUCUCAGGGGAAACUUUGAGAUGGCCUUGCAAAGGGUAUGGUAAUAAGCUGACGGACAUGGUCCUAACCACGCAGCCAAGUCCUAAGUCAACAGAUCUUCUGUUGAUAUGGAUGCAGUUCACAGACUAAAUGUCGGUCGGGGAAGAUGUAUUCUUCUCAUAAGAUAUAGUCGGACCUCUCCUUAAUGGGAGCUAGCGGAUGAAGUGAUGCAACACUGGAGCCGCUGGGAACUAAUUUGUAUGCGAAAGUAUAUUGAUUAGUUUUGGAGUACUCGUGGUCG
Details: 37 °C
Please note: 1 applies when self-splicing fitness (ln) is -2 or greater, and -1 applies otherwise.

seq string	discrete label
AGCAAGCAAUAUUACGUGUC	-1
ACCAAGCAAUAUUACGGGGG	-1
GCCUAGCAAUAUUACGGUUC	1
GGUCAGCAAUAUUACGGCCU	-1
UAUAAGCAAUAUUACGCCCG	1
GUAGAGCAAUAUUACGGACA	1
CGCUAGCAAUAUUACGCGGU	-1
AAUAAGCAAUAUUACGGUGC	-1
GACGAGCAAUAUUACGCUAU	-1
GCGUAGCAAUAUUACGAAGA	1
UCAAAGCAAUAUUACGGCAG	1
GUAAAGCAAUAUUACGGGUG	1
GACGAGCAAUAUUACGGGGA	-1
AUUAAGCAAUAUUACGAAGG	-1
GCGCAGCAAUAUUACGAAUC	1
AAGCAGCAAUAUUACGUAAC	1
GACUAGCAAUAUUACGUAGU	-1
GUGUAGCAAUAUUACGAAUU	1
GAUUAGCAAUAUUACGAGGU	-1
GUGCAGCAAUAUUACGCAUC	-1
ACUGAGCAAUAUUACGCAAA	1
UGCCAGCAAUAUUACGAUCU	1
CGGAAGCAAUAUUACGCGGA	-1
AUGCAGCAAUAUUACGCGAG	1
CUUGAGCAAUAUUACGCUAG	-1
CCGAAGCAAUAUUACGGGAA	1
GGCAAGCAAUAUUACGAUUC	1
CCUGAGCAAUAUUACGGAAG	1
GGAGAGCAAUAUUACGGGUA	-1
GAAUAGCAAUAUUACGGGGA	-1
GGAGAGCAAUAUUACGUCUG	1
CGAGAGCAAUAUUACGCCAG	1
UGAGAGCAAUAUUACGUUGU	-1
